# ASSAY SYSTEM: human oxytocin receptor (human, UniProt P30559)
# ASSAY EXPLANATION: cell-based or functional assay
Definition: the class of an entry is the range in lower segment = under 40, middle segment = from 40 up to 200, upper segment = 200 and over that contains its Emax of calcium release.

Problem: Hi there! Could you help me figure out the category for H-GFDRDCPVV-OH [OT-like peptide #16, Elongation factor Tu 164-172, H-GFDRDCPVV-OH] please?
Solution: lower segment

New cases:
Problem: Hi there! Could you help me figure out the category for H-KTVVWNGPMG-OH [OT-like peptide #3, Phosphoglycerate kinase 317-326, H-KTVVWNGPMG-OH] please?
Solution: upper segment

Problem: Hi there! Could you help me figure out the category for H-VDIQEFMIMPVG-OH [OT-like peptide #9, Enolase 2 160-171, H-[…]-OH] please?
Solution: middle segment

Problem: Hi there! Could you help me figure out the category for H-AYSPLGTGK-OH [OT-like peptide #12, 2,5-didehydrogluconate reductase 202-210, H-AYSPLGTGK-OH] please?
Solution: lower segment

Problem: Hi there! Could you help me figure out the category for H-DFVKNMITG-OH [OT-like peptide #17, Elongation factor Tu 89-97, H-DFVKNMITG-OH] please?
Solution: middle segment

Problem: Hi there! Could you help me figure out the category for H-KQFVHENELG-OH [OT-like peptide #7, Glucose-6-phosphate isomerase 12-21, H-KQFVHENELG-OH] please?
Solution: upper segment

Problem: Hi there! Could you help me figure out the category for H-ATSKNCPIA-OH [OT-like peptide #4, GMP synthase [glutamine-hydrolyzing] 154-162, H-ATSKNCPIA-OH] please?
Solution: upper segment
